Just for reference, PubChem BioAssay (NCI) is where these values come from.

Assay: NCI Yeast Anticancer Drug Screen. Data for the bub3 strain (AID 167)
Settings: S. cerevisiae bub3 mutant strain, at 50.0 µM
The panel holds about 79,000 compounds, 15% with a hit somewhere; the sample as a whole holds those more often. Calls of active or inactive are those of the source. Cut-off read from the data, not from the text of the source: active = growth inhibition above about 70%; inactive = the rest.
I would appreciate it if you answered using one of these outcomes: t (active), f (inactive)

Lookup: Hello, I am checking results. What call was entered for Cc1ccc(C)c(C(C)NC2=NCCO2)c1 (stereo unspecified) ?
Found: f

Lookup: Status in this test for CC(Cc1ccc2c(c1)OCO2)NCC(O)c1ccc(O)c(O)c1 (stereo unspecified) ?
Found: f

Lookup: Per the records of this test, what outcome belongs to C1CC[N+]2=C(C1)OCCC2 ?
Found: f

Lookup: In this assay, the call recorded for CN(C)c1cccc(NC2=NCCO2)c1 was what?
Found: f

Lookup: Which outcome did this test record for the molecule CC(=O)CC(C)=O.CC(=O)CC(C)=O.CC(=O)CC(C)=O.CC(=O)CC(C)=O.[Zr] ?
Found: f

Lookup: For Cc1cc(C)c(O)c(C)c1 , what call appears in the results of this test?
Found: f

Lookup: Could you check what this test reported for O=C(Nc1cc(S(=O)(=O)O)cc2cc(S(=O)(=O)O)c(N=Nc3ccc([As](=O)(O)O)cc3)c(O)c12)c1ccc([N+](=O)[O-])cc1 ?
Found: f

Lookup: Assay outcome for NCCn1ccc2ccccc21 : what was it?
Found: f

Lookup: Tell me the assay call for C[n+]1ccccc1-c1ccc[n+](CCCCC[n+]2cccc(-c3cccc[n+]3C)c2)c1 please.
Found: f

Lookup: Kindly provide the recorded test outcome for the following molecule: CSC(=S)N(C)c1nc(=[N+](C)C)ss1
Found: f

Lookup: Could you kindly confirm the outcome this assay logged for CC1(c2cccc(N(CCCl)CCCl)c2)NC(=O)NC1=O (stereo unspecified) ?
Found: f

Lookup: Outcome logged for CCOc1cc(CCNC)c2c(ccc3ccc(OC)c(O)c32)c1OC in this assay:
Found: f

Lookup: Field: outcome | Entry: CN(C(=O)COc1ccc([N+](=O)[O-])cc1Cl)c1ccc(S(=O)(=O)F)cc1
Found: f

Lookup: I'd appreciate the recorded outcome for CCC(=O)OC1(c2ccccc2)CCN(CCC(=O)c2ccccc2)CC1C (stereo unspecified) from this test.
Found: f

Lookup: GET /call?item= Cc1c(Cl)cc([N+](=O)[O-])c(O)c1[N+](=O)[O-] returns the recorded outcome of this test.
Found: f

Lookup: Each molecule tested received a call. Report the one for COC(=O)C1=C(C)NC(C)=C2C(=O)Oc3ccccc3C12 (stereo unspecified) .
Found: f

Lookup: Would you mind telling me which call this test gave CCOP(=O)(NC(C)(C)C)OCC ?
Found: f

Lookup: For COC(=O)c1c(C(=O)OC)c1=[N+]=[N-] , what call appears in the results of this test?
Found: f

Lookup: Short answer needed: outcome of this test for CCCC[S][Hg][I] ?
Found: t

Lookup: # outcome recorded in this test, key = CCOP(=S)(OCC)S/C(C(=O)NC)=C(/C)O
Found: f

Lookup: # fetch the recorded call for CC(=N\[O-])/C(C)=N/[O-].CC(=N\[O-])/C(C)=N/[O-].[Cu+2] here
Found: f

Lookup: Please let me know the test result on file for c1ccc(N2CCNCC2)cc1 .
Found: f

Lookup: What outcome does the record of this test show for Nc1nc(=S)nc(N)[nH]1 ?
Found: f

Lookup: In this assay, the call recorded for CC(=O)OC[C@]12CCC(C)=C[C@H]1O[C@@H]1[C@H](O)[C@@H](OC(C)=O)[C@@]2(C)[C@@]12CO2 was what?
Found: f

Lookup: # outcome recorded in this test, key = ClCc1nc(-c2ccco2)no1
Found: f

Lookup: Name the outcome recorded for CC/C(=C(/CC)c1ccc(OP(=O)(Cl)N(CCCl)CCCl)cc1)c1ccc(OP(=O)(Cl)N(CCCl)CCCl)cc1 (stereo unspecified) in the assay.
Found: f

Lookup: # lookup: test call for O=[N+]([O-])c1ccc(/C=C/C=C/C=C/C=C/c2ccc(S(=O)(=O)F)cc2Cl)c(Cl)c1
Found: f

Lookup: For CC(=O)Nc1cc([As](=O)(O)O)ccc1O , which call appears in the assay record?
Found: f

Lookup: Called result for CC1=CC(=O)CCC12CCOC2=O (stereo unspecified)
Found: f

Lookup: Outcome? COc1ccc(C)cc1C(CC(=O)O)CC(=O)N(CCCl)CCCl (stereo unspecified)
Found: f

Lookup: Please indicate how the test categorized Cc1ccc(N=C(C(c2ccccc2)c2ccccc2)N(CCCl)CCCl)cc1 .
Found: f

Lookup: Name the outcome recorded for CC(Br)CN(CC(C)Br)c1ccc(-c2ccccc2)cc1 (stereo unspecified) in the assay.
Found: f

Lookup: Assay outcome for c1ccc2c(C3NCCc4[nH]cnc43)cccc2c1 (stereo unspecified) : what was it?
Found: f

Lookup: Please let me know the test result on file for Cc1cc(F)ccc1[As](=O)(O)O .
Found: f

Lookup: Any idea what this test logged for C1CCNCC1.COc1ccccc1C(=O)[CH-]C(=O)C(F)(F)F.COc1ccccc1C(=O)[CH-]C(=O)C(F)(F)F.COc1ccccc1C(=O)[CH-]C(=O)C(F)(F)F.COc1ccccc1C(=O)[CH-]C(=O)C(F)(F)F.[Eu+3] ?
Found: f

Lookup: Dear colleague, could you share the recorded outcome for Oc1ccccc1C1NCCc2[nH]cnc21 (stereo unspecified) when you have a moment?
Found: f

Lookup: Which result was noted for this molecule in the test: O=C1NC(=O)C2(CCOCC2)C(=O)N1
Found: f

Lookup: Called result for O=C(O)C(Cl)C(=O)O
Found: f

Lookup: Please indicate how the test categorized CCOC(=O)CNCCC1(CC)C(=O)NC(=O)NC1=O .
Found: f

Lookup: Recorded test outcome, item COC1C(OC(=O)/C=C/C=C/C=C/C=C\C(=O)O)CCC2(CO2)C1C1(C)OC1CC=C(C)C (stereo unspecified)
Found: f

Lookup: What call does the record list for CCOP(=O)(O)CP(=O)(O)OCC.CCOP(=O)(O)CP(=O)(O)OCC.[Cr] ?
Found: f

Lookup: Just curious, what result did c1ccc(-c2ccc[n+](CC[n+]3cccc(-c4ccccn4)c3)c2)nc1 get here?
Found: f

Lookup: // return assay outcome for COC12C(COC(N)=O)C3=C(C(=O)C(C)=C(N4CC4)C3=O)N1CC1NC12 (stereo unspecified)
Found: t

Lookup: State the result this test recorded for CCCCOP(=O)(/C=C/c1cccs1)OCCCC .
Found: f

Lookup: Per the records of this test, what outcome belongs to Cc1cc(S(=O)(=O)F)ccc1NC(=O)/C=C/c1ccc([N+](=O)[O-])cc1 ?
Found: f

Lookup: Please share the test call associated with O=C(O)c1cc(Cl)nc(Cl)c1 .
Found: f
